# assay remarks: solvent given as SMILES
# run conditions: in CCCCCCC
Recorded solvation free energy, 298 K determines the label; the label ranges are low: < -5 kcal/mol; mid: ≥ -5 kcal/mol and < -2 kcal/mol; high: ≥ -2 kcal/mol

> print(dat)
              substance.smiles  answer.label
 1  O=[N+]([O-])c1cccc2ccccc12           low
 2                CCCCCOC(C)=O           low
 3                   FC(F)(F)F          high
 4                     C=C(C)C           mid
 5                    C=CC(C)C           mid
 6                 FC(F)(Cl)Cl          high
 7                      CCOCCO           mid
 8                 CCCCC(=O)CC           low
 9                         CCO           mid
10                          CI           mid
11               CC(C)c1ccccc1           low

###

# assay remarks: solvent given as SMILES
# run conditions: in C1CCOC1
Decide by solvation free energy, 298 K: equal to or exceeding -7 kcal/mol means True, less means False.

> print(dat)
                              molecule  answer.label
 1                        CC(Cl)(Cl)Cl          True
 2                      CC(C)C(C)C(C)C          True
 3    O=C(O)c1ccc(Cl)c([N+](=O)[O-])c1         False
 4      O=C(O)c1cc([N+](=O)[O-])ccc1Cl         False
 5      CCc1ccc2c(c1)C(=O)c1ccccc1C2=O         False
 6                          CCc1ccccc1          True
 7  FC(F)(F)C(Cl)Br (stereo not drawn)          True
 8                               CCCCC          True
 9                            CN(C)C=O          True
10                                CC#N          True
11                             CCCCCCO         False
12                             CCCCCCl          True
13           O=S(=O)(c1ccccc1)c1ccccc1         False

###

Items are presented alongside their recorded solvation free energy, 298 K.
# assay remarks: solvent given as SMILES
# run conditions: in CCO
assay readout: solvation free energy, 298 K (kcal/mol)

> print(dat)
                                    compound         u  experimental.value
 1  OCC(O)C(O)C(O)CO (configuration not stated)  kcal/mol               -13.8
 2                                     CCOCC  kcal/mol               -3.26
 3                          Cc1cc(C)c(C)cc1C  kcal/mol               -6.44
 4             c1ccc(P(c2ccccc2)c2ccccc2)cc1  kcal/mol               -15.7
 5                           NC(=O)c1ccccc1O  kcal/mol               -12.5
 6                            c1ccc2ccccc2c1  kcal/mol               -7.08
 7                                   C1CCOC1  kcal/mol               -4.09
 8                                        CI  kcal/mol               -2.99
 9                                  c1ccncc1  kcal/mol                -5.7
10                            CC(C)C(C)C(C)C  kcal/mol               -4.02
11            CCc1ccc2c(c1)C(=O)c1ccccc1C2=O  kcal/mol               -12.6
12                         Nc1ccc(C(=O)O)cc1  kcal/mol               -14.6
13                       c1ccc(-c2ccccc2)cc1  kcal/mol               -8.23
14                                      CC#N  kcal/mol               -3.96
15                                 CCC(=O)OC  kcal/mol               -4.15
16                           Cc1cccc2ccccc12  kcal/mol               -7.47
17              O=C(O)c1cccc([N+](=O)[O-])c1  kcal/mol               -12.5
18                              CCCCC1CCCCC1  kcal/mol               -5.65
19              O=[N+]([O-])c1ccc(Cl)c(Cl)c1  kcal/mol               -8.24
20                                 CCCCCCCCC  kcal/mol               -4.84
21                   O=C(O)c1cc(O)c(O)c(O)c1  kcal/mol               -19.8
22                             CC(=O)CC(C)=O  kcal/mol               -5.43
23                                 FC(F)(F)F  kcal/mol                0.98
24  CCC(C)C(=O)OC1CC(C)C=C2C=CC(C)C(CCC3CC(O)CC(=O)O3)C21 (configuration not stated)  kcal/mol               -25.1
25            O=C(O)Cc1ccccc1Nc1c(Cl)cccc1Cl  kcal/mol               -18.5
26                                CCc1ccccc1  kcal/mol               -4.83
27                 O=S(=O)(c1ccccc1)c1ccccc1  kcal/mol               -13.6

###

Items are presented alongside their recorded solvation free energy, 298 K.
# assay remarks: solvent given as SMILES
# run conditions: in CCCCCO
assay readout: solvation free energy, 298 K (kcal/mol)

> print(dat)
                 substance.smiles                 assay.readout  experimental.value
1    O=C(O)c1cccc([N+](=O)[O-])c1  solvation free energy, 298 K               -12.1
2      O=[N+]([O-])c1cccc2ccccc12  solvation free energy, 298 K               -9.99
3  O=C(O)c1cc([N+](=O)[O-])ccc1Cl  solvation free energy, 298 K               -12.8
4                            C=CC  solvation free energy, 298 K               -1.32

###

Items are presented alongside their recorded solvation free energy, 298 K.
# assay remarks: solvent given as SMILES
# run conditions: in C=CCCCCCCCCCCCCCC
assay readout: solvation free energy, 298 K

> print(dat)
                           molecule                 assay.readout  experimental.value
 1  CCC(C)C(C)C (centres undefined)  solvation free energy, 298 K      -3.97 kcal/mol
 2    CCCC(C)CC (centres undefined)  solvation free energy, 298 K      -4.01 kcal/mol
 3                        CCC(CC)CC  solvation free energy, 298 K      -4.07 kcal/mol
 4                        CCOC(C)=O  solvation free energy, 298 K      -3.23 kcal/mol
 5                          CC(C)Br  solvation free energy, 298 K      -3.29 kcal/mol
 6                       C=CCCC(C)C  solvation free energy, 298 K      -3.87 kcal/mol
 7              COCc1ccc(C(=O)O)cc1  solvation free energy, 298 K      -8.27 kcal/mol
 8                      CCCC(C)(C)C  solvation free energy, 298 K       -3.7 kcal/mol
 9                          CCCCCCl  solvation free energy, 298 K      -4.46 kcal/mol
10                          CC(C)Cl  solvation free energy, 298 K      -2.78 kcal/mol
11                        C=CC=CC=C  solvation free energy, 298 K      -3.78 kcal/mol
12                         C=CC=CCC  solvation free energy, 298 K      -3.64 kcal/mol
13                         CC(C)CBr  solvation free energy, 298 K      -3.98 kcal/mol
14                      C=CC(C)(C)C  solvation free energy, 298 K      -2.97 kcal/mol
